target: UniProt:Q02127; assay: DHODH activity assay (coupled enzyme assay, DCIP reduction, absorbance at 610 nm); assay type: biochemical; details: compound at 10 uM; read-out: inh @ 10 uM hDHODH (%)
parameterMeasured: inhibition at 10 µM (%)

Cc1cc(C(=O)O)c2[nH]c(-c3ccc(-c4ccc(OCCC5CCNCC5)cc4)cc3)nc2c1 [I95] ... 58.7
Cc1cc(C(=O)O)c2nc(-c3ccc(-c4ccccc4O)cc3)[nH]c2c1 [I167] ... 82.7
Cc1cc(C(=O)O)c2nc(-c3ccc(-c4cccnc4)cc3)[nH]c2c1 [I59] ... 99.2
Cc1cc(C(=O)O)c2nc(C#Cc3ccc(OCc4ccccc4)cc3)[nH]c2c1 [I166] ... 53.2

(A) COC(=O)c1cccc2nc(-c3ccc(-c4ccccc4)cc3)[nH]c12 [I79]
(B) Cc1cc(C(=O)O)c2nc(-c3ccc(-c4nc5ccccc5s4)cc3)[nH]c2c1 [I47]
(C) Cc1cc(C(=O)O)c2nc(-c3c(F)c(F)c(-c4cccc(NC(=O)C5CCCN5)c4)c(F)c3F)[nH]c2c1 (stereo not drawn) [I86]
Query: Provide the items ranked by increasing inhibition at 10 µM. Note for the reader: the ranking is given by listing the labels in the order requested.
Reply: A, B, C
(A: 5.3%, B: 40.3%, C: 93.1%)

(P) Cn1c(-c2ccc(-c3ccccc3)cc2)nc2c(C(=O)O)cccc21 [I7]
(Q) O=C(O)c1cccc2nc(-c3c(F)c(F)c(-c4cccs4)c(F)c3F)[nH]c12 [I124]
Query: Hi, I'm comparing P with Q and wondering which one has the bigger number for inhibition at 10 µM. Any idea? I would appreciate it if you answered with the label of your choice.
Reply: Q
(Q: 104%, P: 30.2%)

----------
Target: DHODH (Homo sapiens (Human), UniProt Q02127)
Sequence (Q02127 whole entry): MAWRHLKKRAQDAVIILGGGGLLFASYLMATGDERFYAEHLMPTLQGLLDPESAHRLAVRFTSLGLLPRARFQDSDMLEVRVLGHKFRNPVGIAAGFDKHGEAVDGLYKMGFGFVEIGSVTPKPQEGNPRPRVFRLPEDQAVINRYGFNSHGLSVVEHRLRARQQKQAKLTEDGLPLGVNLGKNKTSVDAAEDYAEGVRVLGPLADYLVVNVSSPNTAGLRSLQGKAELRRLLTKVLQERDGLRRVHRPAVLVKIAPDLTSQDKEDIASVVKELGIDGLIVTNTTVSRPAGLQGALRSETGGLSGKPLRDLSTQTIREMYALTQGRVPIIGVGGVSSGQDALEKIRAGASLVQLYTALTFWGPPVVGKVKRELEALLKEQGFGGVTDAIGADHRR
Assay: DHODH activity assay (coupled enzyme assay, DCIP reduction, absorbance at 610 nm)
Assay type: biochemical
Settings: compound at 10 uM; read-out: inh @ 10 uM hDHODH (%)
Description: The DHODH activity assay is a coupled enzyme assay in which oxidation of DHO and subsequent reduction of ubiquinone are stoichiometrically equivalent to the reduction of DCIP ([…]). The reduction of DCIP is accompanied by a loss of absorbance at 610 nm. […] 5 μL of Dimethyl sulfoxide or a compound of formula I in DMSO solution was added to the wells of a 96 well plate. Compounds of formula I were measured at 10 μM. […] Percent Inhibition is Calculated as Follows […]
parameterMeasured: inhibition at 10 µM (%)

Example compounds with recorded inhibition at 10 µM:
Cc1cc(C(=O)O)c2[nH]c(-c3c(F)c(F)c(-c4cccc(O)c4)c(F)c3F)nc2c1 [I104] ... 104
Cc1cc(C(=O)O)c2nc(-c3c(F)c(F)c(-c4cc(F)cc(F)c4)c(F)c3F)[nH]c2c1 [I146] ... 96.4

(I) O=C(O)c1cccc2[nH]c(-c3ccc(-c4cccs4)cc3)nc12 [I192]
(II) Cc1cc(C(=O)O)c2nc(-c3ccc(Oc4c(F)c(F)c(F)c(F)c4F)cc3)[nH]c2c1 [I72]
Query: Among I and II , whose measured inhibition at 10 µM is the smaller figure? I would appreciate it if you answered with the label of your choice.
Reply: II

----------
molecular target: DHODH (Homo sapiens (Human)); test: DHODH activity assay (coupled enzyme assay, DCIP reduction, absorbance at 610 nm); type: biochemical; conditions: compound at 10 uM; read-out: inh @ 10 uM hDHODH (%)
parameterMeasured: inhibition at 10 µM (%)

Example compounds with recorded inhibition at 10 µM:
Cc1cc(C(=O)O)c2[nH]c(-c3ccc(-c4ccccc4OCc4ccccc4)cc3)nc2c1 ... 91
Cc1cc(C(=O)O)c2nc(-c3c(F)c(F)c(-c4ccc(CN5CCCCC5)cc4)c(F)c3F)[nH]c2c1 ... 111

(A) Cc1cc(C(=O)O)c2nc(-c3ccc(-c4ccc(OCCCN5CCCCC5)cc4)cc3)[nH]c2c1
(B) Cn1cc(-c2ccc(-c3nc4cccc(C(=O)O)c4[nH]3)cc2)cn1
Query: Hi, I'm comparing A with B and wondering which one has the bigger number for inhibition at 10 µM. Any idea? I would appreciate it if you answered with the label of your choice.
Reply: A

----------
pIC50, UniProtKB Q02127: measured values
pIC50: −log10 of the molar value.
parameterMeasured: pIC50

Cc1cc(C(=O)O)c2nc(-c3c(F)c(F)c(-c4cc(F)cc(F)c4)c(F)c3F)[nH]c2c1 ... 7.68
Cc1cc(C(=O)O)c2nc(-c3ccc(-c4cccc(F)c4F)cc3)[nH]c2c1 ... 6.05

(I) Cc1cc(C(=O)O)c2[nH]c(-c3ccc(-c4ccc(OCCC5CCNCC5)cc4)cc3)nc2c1
(II) O=C(O)c1cccc2[nH]c(-c3c(F)c(F)c(-c4ccc(F)c(F)c4)c(F)c3F)nc12
(III) O=C(O)c1cccc2[nH]c(-c3ccc(Nc4ccccc4)cc3)nc12
Query: Rank the 3 compounds: largest pIC50 first, smallest last. Note for the reader: the ranking is given by listing the labels in the order requested.
Reply: II, I, III
(II: 5.91, I: 5.22, III: 4.57)

----------
biological target: DHODH (Homo sapiens (Human), UniProt Q02127); assay: DHODH activity assay (coupled enzyme assay, DCIP reduction, absorbance at 610 nm); assay type: biochemical; details: compound at 10 uM
parameterMeasured: inh @ 10 uM hDHODH (%)

COc1cccc(-c2ccc(-c3nc4c(C(=O)O)cccc4[nH]3)c(F)c2)c1 [I5] ... 94.3
COc1cccc(-c2ccc(-c3nc4c(C(=O)O)cccc4[nH]3)c(F)c2)c1 [I3] ... 92.6

(I) O=C(O)c1cc(Cl)cc2c1N=C(c1ccc(-c3ccccc3)cc1)C2 [I51]
(II) COc1cccc(-c2ccc(-c3nc4c(C(=O)O)cccc4[nH]3)c(F)c2)c1 [I4]
Query: Among I and II , whose measured inh @ 10 uM hDHODH (%) is the smaller figure? I would appreciate it if you answered with the label of your choice.
Reply: II

----------
molecular target: DHODH (Homo sapiens (Human)); assay: DHODH activity assay (coupled enzyme assay, DCIP reduction, absorbance at 610 nm); assay type: biochemical; conditions: compound at 10 uM; read-out: inh @ 10 uM hDHODH (%)
parameterMeasured: inhibition at 10 µM (%)

Cc1cc(C(=O)O)c2[nH]c(-c3ccc(-n4ccccc4=O)cc3)nc2c1 [I64] ... 5.7
O=C(O)c1cccc2cc(-c3ccc(-c4ccccc4)cc3)[nH]c12 [I61] ... 94.8
Cc1cc(C(=O)O)c2nc(-c3ccc(-c4ccccc4)cn3)[nH]c2c1 [I53] ... 59.8
Cc1cc(C(=O)O)c2[nH]c(-c3ccc(-c4cccc(OC5CCNCC5)c4)cc3)nc2c1 [I155] ... 48.5
Cc1cc(-c2nnn[nH]2)c2nc(-c3c(F)c(F)c(-c4ccccc4)c(F)c3F)[nH]c2c1 [I103] ... 107

(1) Cc1cc(C(=O)O)c2[nH]c(-c3ccc(-c4ccc(F)cc4F)cc3)nc2c1 [I33]
(2) Cc1cc(C(=O)O)c2nc(-c3ccc(-c4ccc(OCCCN5CCCC5)cc4)cc3)[nH]c2c1 [I152]
Query: Among 1 and 2 , whose measured inhibition at 10 µM is the smaller figure? I would appreciate it if you answered with the label of your choice.
Reply: 2

----------
target: DHODH (Homo sapiens (Human)); assay: DHODH activity assay (coupled enzyme assay, DCIP reduction, absorbance at 610 nm); type: biochemical
parameterMeasured: IC50 (µM)

Cc1cc(C(=O)O)c2nc(-c3ccc(-c4ccc(O)cc4)cc3)[nH]c2c1 ... 0.35

(A) Cc1cc(C(=O)O)c2[nH]c(-c3ccc(-c4ccccc4F)cc3F)nc2c1
(B) Cc1cc(C(=O)O)c2[nH]c(-c3c(F)c(F)c(-c4ccc(O)cc4)c(F)c3F)nc2c1
(C) COc1cc(-c2ccccc2)ccc1-c1nc2c(C(=O)O)cc(C)cc2[nH]1
(D) Nc1nnc(-c2cccc3[nH]c(-c4ccc(-c5ccccc5)cc4)nc23)s1
Query: Provide the items ranked by increasing IC50. Note for the reader: the ranking is given by listing the labels in the order requested.
Reply: B, A, C, D
(B: 0.016 µM, A: 0.172 µM, C: 1.18 µM, D: 15.9 µM)

----------
target: DHODH (Homo sapiens (Human), UniProt Q02127); assay: DHODH activity assay (coupled enzyme assay, DCIP reduction, absorbance at 610 nm); type: biochemical; conditions: compound at 10 uM; read-out: inh @ 10 uM hDHODH (%)
parameterMeasured: inhibition at 10 µM (%)

(P) O=C(O)c1cccc2[nH]c(-c3c(F)c(F)c(-c4ccsc4)c(F)c3F)nc12 [I144]
(Q) O=C(O)c1cccc2[nH]c(-c3ccc(-c4ccc(C(F)(F)F)cc4)cc3)nc12 [I13]
Query: Hi, I'm comparing P with Q and wondering which one has the bigger number for inhibition at 10 µM. Any idea? I would appreciate it if you answered with the label of your choice.
Reply: P
(P: 89.8%, Q: 10.6%)

(a) Cc1ccc(C)n1-c1c(F)c(F)c(-c2nc3cccc(C(=O)O)c3[nH]2)c(F)c1F [I110]
(b) O=C(O)c1cc(F)cc2nc(-c3ccc4cc[nH]c4c3)[nH]c12 [I37]
(c) O=C(O)c1cccc2[nH]c(-c3ccc(OCc4ccccc4)cc3)nc12 [I2]
Query: Provide the items ranked by increasing inhibition at 10 µM. Note for the reader: the ranking is given by listing the labels in the order requested.
Reply: b, c, a

(A) Cc1cc(C(=O)O)c2nc(-c3ccc(-c4ccc(OCc5ccccn5)cc4)cc3)[nH]c2c1 [I119]
(B) O=C(O)c1cccc2[nH]c(-c3ccc(-c4ccc(OC(F)(F)F)cc4)cc3)nc12 [I16]
Query: Hi, I'm comparing A with B and wondering which one has the bigger number for inhibition at 10 µM. Any idea? I would appreciate it if you answered with the label of your choice.
Reply: A

(I) O=C(O)c1cccc2[nH]c(-c3ccc(-c4cccc(OCc5ccccc5)c4)cc3)nc12 [I118]
(II) O=C(O)c1cccc2nc(-c3ccc(N4CCOCC4)cc3)[nH]c12 [I62]
(III) COc1cccc(-c2ccc(-c3nc4c(C(=O)O)cccc4[nH]3)cc2)c1 [I11]
(IV) Cc1cc(C(=O)O)c2nc(-c3ccc(-c4cnccn4)cc3)[nH]c2c1 [I147]
Query: Provide the items ranked by increasing inhibition at 10 µM. Note for the reader: the ranking is given by listing the labels in the order requested.
Reply: II, III, IV, I
(II: 8.4%, III: 13.7%, IV: 44.3%, I: 84%)
